Molecular target: human S1PR5 (Homo sapiens, UniProt Q9H228)
Construct: host or cells: CHO-K1
Sequence (Q9H228 whole entry): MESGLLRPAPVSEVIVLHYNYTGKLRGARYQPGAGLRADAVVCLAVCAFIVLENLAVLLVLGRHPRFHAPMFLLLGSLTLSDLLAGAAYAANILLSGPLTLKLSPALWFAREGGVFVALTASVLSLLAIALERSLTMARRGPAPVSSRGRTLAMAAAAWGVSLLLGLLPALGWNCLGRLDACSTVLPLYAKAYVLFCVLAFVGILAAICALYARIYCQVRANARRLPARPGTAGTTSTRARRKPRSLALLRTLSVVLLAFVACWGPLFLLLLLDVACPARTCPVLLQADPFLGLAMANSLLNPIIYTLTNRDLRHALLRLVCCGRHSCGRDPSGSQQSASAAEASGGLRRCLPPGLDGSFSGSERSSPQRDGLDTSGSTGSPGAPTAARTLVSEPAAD
Test: Intracellular Ca2+ release (FLIPR) agonist potency, S1P5
Type: cell-based
Conditions: recombinant CHO-K1 cells expressing human S1PR5, aequorin, Gq/i5; Calcium 5 FLIPR; read-out: S1P5 EC50 range
This section presents compounds with their documented EC50 values.
assay_endpoint: EC50

O=C(O)C1CN(C2COc3cc(OCc4ccccc4Cl)ccc3C2)C1 (stereo not drawn); 100 to 1000 nM
O=C(O)C1CN(C2COc3cc(OCc4ccc(Cl)cc4Cl)ccc3C2)C1 (stereo not drawn); 100 to 1000 nM
CCc1cccc(Cl)c1COc1ccc2c(c1)CCC(NCC(=O)O)C2 (stereo not drawn); < 10 nM
O=C(O)[C@H]1C[C@@H](NC2CCc3cc(OCc4c(Cl)cccc4Cl)ccc3C2)C1 (stereo partly drawn); < 10 nM
Cc1cccc(C#Cc2ccc3c(c2)OCC(N2CC(C(=O)O)C2)C3)c1 (stereo not drawn); 100 to 1000 nM
O=C(O)CCNC1CCc2cc(OCc3ccccc3)ccc2C1 (stereo not drawn); 10 to 100 nM
O=C(O)CCOC1CCc2cc(OCc3cccc(F)c3)ccc2C1 (stereo not drawn); 1000 to 10000 nM
CC(C)C(NC1CCc2cc(OCc3c(Cl)cccc3Cl)ccc2C1)C(=O)O (stereo not drawn); 100 to 1000 nM
O=C(O)C1CN(C2COc3cc(C#Cc4ccccc4C(F)(F)F)ccc3C2)C1 (stereo not drawn); 10 to 100 nM
